# Lookup of reported Solubility keyed by entry
# protocol: Solubility in cyclopentanone
# Format: physicochemical
# test context: heated and stirred at 50° C. for 1 minute, left at 20° C. for 10 minutes, concentration lowered from 40% in 5% steps
State the answer as a number, implicitly in % by mass.

molecule | Solubility / % by mass
C=CC(=O)OCCCCOC(=O)C1CCC(C2CCC(C(=O)Oc3ccc(OC(=O)C4CCC(C5CCC(C(=O)OCCCCOC(=O)C=C)CC5)CC4)c4c(OC(C)=O)ccc(OC(C)=O)c34)CC2)CC1 (centres unmarked) [Compound 1-17] | 20
C=CC(=O)OCCCCOC(=O)C1CCC(C2CCC(C(=O)Oc3ccc(OC(=O)C4CCC(C5CCC(C(=O)OCCCCOC(=O)C=C)CC5)CC4)c4c(OC(=O)CCl)cccc34)CC2)CC1 (centres unmarked) [Compound 2-4] | 20
C=CC(=O)OCCCCOC(=O)C1CCC(C2CCC(C(=O)Oc3ccc(OC(=O)C4CCC(C5CCC(C(=O)OCCCCOC(=O)C=C)CC5)CC4)c4c(OCC)cccc34)CC2)CC1 (centres unmarked) [Compound 1-8] | 20
C=CC(=O)OCCCCOc1ccc(C(=O)Oc2ccc(C(=O)Oc3ccc(OC(=O)c4ccc(OC(=O)c5ccc(OCCCCOC(=O)C=C)cc5)cc4)c4c(OC(C)=O)cccc34)cc2)cc1 [Compound 2-2] | 15
C=CC(=O)OCCCCOC(=O)C1CCC(C2CCC(C(=O)Oc3cc(C)c(OC(=O)C4CCC(C5CCC(C(=O)OCCCCOC(=O)C=C)CC5)CC4)c4ccccc34)CC2)CC1 (centres unmarked) [Compound 1-2] | 25

Given C=CC(=O)OCCCCOC(=O)C1CCC(C2CCC(C(=O)Oc3ccc(OC(=O)C4CCC(C5CCC(C(=O)OCCCCOC(=O)C=C)CC5)CC4)c4c(C)cccc34)CC2)CC1 (centres unmarked) [Compound 1-7] , state its recorded Solubility.
25

Given C=CC(=O)OCCCCOC(=O)C1CCC(C2CCC(C(=O)Oc3ccc(OC(=O)C4CCC(C5CCC(C(=O)OCCCCOC(=O)C=C)CC5)CC4)c4c(OCCCC)cccc34)CC2)CC1 (centres unmarked) [Compound 1-9] , state its recorded Solubility.
20

Given C=CC(=O)OCCCCOC(=O)C1CCC(C2CCC(C(=O)Oc3ccc(OC(=O)C4CCC(C5CCC(C(=O)OCCCCOC(=O)C=C)CC5)CC4)c4c(OCCCCCCCC)cccc34)CC2)CC1 (centres unmarked) [Compound 1-10] , state its recorded Solubility.
30

Given C=C(C)C(=O)OCCCCOC(=O)C1CCC(C2CCC(C(=O)Oc3ccc(OC(=O)C4CCC(C5CCC(C(=O)OCCCCOC(=O)C(=C)C)CC5)CC4)c4c(OC(C)=O)cccc34)CC2)CC1 (centres unmarked) [Compound 1-12] , state its recorded Solubility.
35

----------
# protocol: Solubility in cyclopentanone
# Type: physicochemical
# test context: heated and stirred at 50° C. for 1 minute, left at 20° C. for 10 minutes, concentration lowered from 40% in 5% steps
# Lookup of reported Solubility keyed by entry

Given C=CC(=O)OCCCCOc1ccc(C(=O)Oc2ccc(OC(=O)c3ccc(OC(=O)c4ccc(OC(=O)c5ccc(OCCCCOC(=O)C=C)cc5)cc4)c(C)c3)cc2)cc1 [compound 2, reference compound] , state its recorded Solubility.
<5 % by mass

Given C=CC(=O)OCCCCOC(=O)C1CCC(C2CCC(C(=O)Oc3ccc(OC(=O)C4CCC(C5CCC(C(=O)OCCCCOC(=O)C=C)CC5)CC4)c4c(OC(C)=O)cccc34)CC2)CC1 (stereo not shown) , state its recorded Solubility.
35 % by mass

----------
# protocol: Precipitation suppression (recrystallization temperature on cooling, hot stage under polarizing microscope)
# Type: physicochemical
# test context: class by recrystallization temperature; heated to isotropic phase, then lowered at 5° C./min

compound | Precipitation suppression
C=CC(=O)OCCCCOC(=O)C1CCC(C2CCC(C(=O)Oc3ccc(OC(=O)C4CCC(C5CCC(C(=O)OCCCCOC(=O)C=C)CC5)CC4)c4c(OCC)ccc(OCC)c34)CC2)CC1 (stereo not shown) | A (Lower than 50° C.)
C=CC(=O)OCCCCOC(=O)C1CCC(C2CCC(C(=O)Oc3ccc(OC(=O)C4CCC(C5CCC(C(=O)OCCCCOC(=O)C=C)CC5)CC4)c4c(OCCCC)cccc34)CC2)CC1 (stereo not shown) | A (Lower than 50° C.)
C=C(C)C(=O)OCCCCOC(=O)C1CCC(C2CCC(C(=O)Oc3ccc(OC(=O)C4CCC(C5CCC(C(=O)OCCCCOC(=O)C(=C)C)CC5)CC4)c4c(OC(C)=O)cccc34)CC2)CC1 (stereo not shown) | A (Lower than 50° C.)

----------
# protocol: Solubility in cyclopentanone
# Assay type: physicochemical
# test context: heated and stirred at 50° C. for 1 minute, left at 20° C. for 10 minutes, concentration lowered from 40% in 5% steps
# Procedure: Cyclopentanone was added to 25 mg of each synthesized compound so that the concentration of each compound was 40% by mass, and the mixture was heated and stirred at 50° C. for 1 minute. Then, the mixture was left to stand at 20° C. for 10 minutes, and in a case where there is no undissolved residue or precipitation, it is determined that the mixture can be dissolved at 40% by mass. […]
endpoint name: Solubility (% by mass)
State the answer as a number, implicitly in % by mass.

molecule | units symbol | Solubility
C=CC(=O)OCCCCOC(=O)C1CCC(C2CCC(C(=O)Oc3ccc(OC(=O)C4CCC(C5CCC(C(=O)OCCCCOC(=O)C=C)CC5)CC4)c4cc(C)ccc34)CC2)CC1 (centres unmarked) [Compound 1-6] | % by mass | 35
C=CC(=O)OCCCCOC(=O)C1CCC(OC(=O)C2CCC(C(=O)Oc3ccc(OC(=O)C4CCC(C(=O)OC5CCC(C(=O)OCCCCOC(=O)C=C)CC5)CC4)c4ccccc34)CC2)CC1 (centres unmarked) [Compound 2-1] | % by mass | 10
C=CC(=O)OCCCCOC(=O)C1CCC(C2CCC(C(=O)Oc3ccc(OC(=O)C4CCC(C5CCC(C(=O)OCCCCOC(=O)C=C)CC5)CC4)c4ccccc34)CC2)CC1 (centres unmarked) [Compound 1-1] | % by mass | 20

Given C=CC(=O)OCCOC(=O)C1CCC(C2CCC(C(=O)Oc3ccc(OC(=O)C4CCC(C5CCC(C(=O)OCCOC(=O)C=C)CC5)CC4)c4c(OC(C)=O)cccc34)CC2)CC1 (centres unmarked) [Compound 1-13] , state its recorded Solubility.
30

Given C=CC(=O)OCCCCOC(=O)C1CCC(C2CCC(C(=O)Oc3ccc(OC(=O)C4CCC(C5CCC(C(=O)OCCCCOC(=O)C=C)CC5)CC4)c4c(OS(C)(=O)=O)cccc34)CC2)CC1 (centres unmarked) [Compound 2-3] , state its recorded Solubility.
25

Given C=CC(=O)OCCCCOC(=O)C1CCC(C2CCC(C(=O)Oc3cc(OC)c(OC(=O)C4CCC(C5CCC(C(=O)OCCCCOC(=O)C=C)CC5)CC4)c4ccccc34)CC2)CC1 (centres unmarked) [Compound 1-3] , state its recorded Solubility.
20
